Reference for the values: ChEMBL document CHEMBL1131795

Hi there, I'd appreciate the recorded Cell viability for every entry that follows.
Organism: Homo sapiens
Assay: Cell viability of serum-deprived Jurkat cells were determined, 24 hours after incubation with 100 uM concentration of the compound, by MTT-assay
Type: functional
Report as a plain number; the unit % is understood.

Summary for this molecule, `C[C@@H]1CCCO[C@@]12CC[C@H](C)[C@@H](COCc1ccccc1)O2` : Cell viability is 0

Summary for this molecule, `C[C@@H]1CCCO[C@@]12CC[C@H](C)[C@@H](CO[Si](c1ccccc1)(c1ccccc1)C(C)(C)C)O2` : Cell viability is 43

Summary for this molecule, C[C@@H]1CCCO[C@@]12CC[C@H](C)[C@@H](COC1CCCCO1)O2 (stereo not given in full) : Cell viability is 60.1

Summary for this molecule, `C[C@@H]1CCCO[C@]12O[C@H](CO)[C@@H](C)C[C@H]2S(=O)(=O)c1ccccc1` : Cell viability is 39

Summary for this molecule, `C[C@@H]1CCCO[C@@]12CCCCO2` : Cell viability is 87.4

Summary for this molecule, `C[C@@H]1CCCO[C@@]12CC[C@H](C)[C@@H](CO)O2` : Cell viability is 43.8

Summary for this molecule, `COCOC[C@H]1O[C@@]2(CC[C@@H]1C)OCCC[C@H]2C` : Cell viability is 81.5

Summary for this molecule, CC1CC[C@]2(CCCCO2)OC1 (stereo not given in full) : Cell viability is 84.6

Summary for this molecule, `C[C@@H]1CCCO[C@@]12CC[C@H](C)[C@@H](COCOCc1ccccc1)O2` : Cell viability is 0.3

Summary for this molecule, `C[C@@H]1CCCO[C@]12O[C@H](CO[Si](c1ccccc1)(c1ccccc1)C(C)(C)C)[C@@H](C)C[C@H]2S(=O)(=O)c1ccccc1` : Cell viability is 68.4
